Data credit: patent US20110038869A1

Biological target: T1, biotinylated CD32bECDHis (human, UniProt P31994 43-223, limits assumed, biotinylated (sites not given))
T1 sequence (looked up): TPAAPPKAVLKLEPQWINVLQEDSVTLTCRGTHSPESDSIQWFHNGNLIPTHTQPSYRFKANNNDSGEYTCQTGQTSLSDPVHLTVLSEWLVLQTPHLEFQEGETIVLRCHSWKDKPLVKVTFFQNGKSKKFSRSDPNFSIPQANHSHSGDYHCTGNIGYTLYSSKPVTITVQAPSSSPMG
Test: competition ELISA, competitor 016
Property: % residual binding; scope: individual binders
// return numeric value only (unit: %, not printed)

The following binders have reported results that may help.
Data request: For the binder shown here, Antibody 022 (antibody, V domains shown, also called HuMab 022) VH: QVQLVQSGAEVKKPGASVKVSCKASGYTFTSYGLSWVRQAPGQGLEWMGWISPYNGNTHYAQKLQGRVTMTTDTSTSTADMDLRSLRSDDTAVYYCARASAAHGMDVWGQGTTVTVSS VL: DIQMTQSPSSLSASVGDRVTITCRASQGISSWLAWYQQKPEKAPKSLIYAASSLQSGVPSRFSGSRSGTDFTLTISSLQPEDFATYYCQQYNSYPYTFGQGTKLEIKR , give the reported % residual binding.
Data returned: 102

Data request: What % residual binding value was documented for this binder, Antibody 026 (antibody, V domains shown, Human antibody; also called HuMab 026) VH: QVQLVQSGAEVKKPGASVKVSCKASGYTFTSYGLSWVRQAPGQGLEWMGWISAYNGNTNYAQKLQGRVTMTTDTSTSTAYMDLRSLRSDDTAVYYCARDSAAHGMDVWGQGTTVTVSS VL: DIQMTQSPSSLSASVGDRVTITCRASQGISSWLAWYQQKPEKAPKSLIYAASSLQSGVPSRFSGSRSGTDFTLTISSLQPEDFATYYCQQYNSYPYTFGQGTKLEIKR ?
Data returned: 104

New cases:
Data request: Using the record for Antibody 020 (antibody, V domains shown, also called HuMab 020) VH: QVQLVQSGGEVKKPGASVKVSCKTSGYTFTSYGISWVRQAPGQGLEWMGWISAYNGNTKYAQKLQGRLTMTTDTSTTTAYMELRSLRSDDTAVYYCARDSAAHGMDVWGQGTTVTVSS VL: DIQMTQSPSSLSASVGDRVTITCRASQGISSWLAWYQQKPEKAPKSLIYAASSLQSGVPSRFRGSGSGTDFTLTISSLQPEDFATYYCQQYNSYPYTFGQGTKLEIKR , report its % residual binding.
Data returned: 105
